// MIC collected for Streptococcus pyogenes EES61
API: value field is a number in µg/mL; no unit string.

A selection of reference data follows.
[[record]]
compound = "CC[C@H]1OC(=O)[C@H](C)C(=O)[C@H](C)[C@@H](O[C@@H]2O[C@H](C)C[C@H](N(C)C)[C@H]2O)[C@](C)(OCC#Cc2ccc(-c3nccn3C)s2)C[C@@H](C)C(=O)[C@H](C)[C@H]2NC(=O)O[C@@]21C [Example 32]"
measured = 0.01

[[record]]
compound = "CC[C@H]1OC(=O)[C@H](C)C(=O)[C@H](C)[C@@H](O[C@@H]2O[C@H](C)C[C@H](N(C)C)[C@H]2O)[C@](C)(OCC#Cc2ccc(-c3cccc(C)c3)s2)C[C@@H](C)C(=O)[C@H](C)[C@H]2NC(=O)O[C@@]21C [Example 18]"
measured = 0.02

[[record]]
compound = "CC[C@H]1OC(=O)[C@H](C)C(=O)[C@H](C)[C@@H](O[C@@H]2O[C@H](C)C[C@H](N(C)C)[C@H]2O)[C@](C)(OC/C=C/c2ccc(-c3ccccn3)s2)C[C@@H](C)C(=O)[C@H](C)[C@H]2NC(=O)O[C@@]21C [Example 75]"
measured = 0.02

[[record]]
compound = "CC[C@H]1OC(=O)[C@H](C)C(=O)[C@H](C)[C@@H](O[C@@H]2O[C@H](C)C[C@H](N(C)C)[C@H]2O)[C@](C)(OC/C=C/c2cnc(-c3cccs3)s2)C[C@@H](C)C(=O)[C@H](C)[C@H]2NC(=O)O[C@@]21C [Example 57]"
measured = 0.01

[[record]]
compound = "CC[C@H]1OC(=O)[C@H](C)C(=O)[C@H](C)[C@@H](O[C@@H]2O[C@H](C)C[C@H](N(C)C)[C@H]2O)[C@](C)(OCC#Cc2ccc(-c3cccc(NC(C)=O)c3)s2)C[C@@H](C)C(=O)[C@H](C)[C@H]2NC(=O)O[C@@]21C [Example 20]"
measured = 0.02


# input for lookup
Data request, read-out MIC, for CC[C@H]1OC(=O)[C@H](C)C(=O)[C@H](C)[C@@H](O[C@@H]2O[C@H](C)C[C@H](N(C)C)[C@H]2O)[C@](C)(OC/C=C/c2ccc3ncc(-c4ccco4)cc3c2)C[C@@H](C)C(=O)[C@H](C)[C@H]2NC(=O)O[C@@]21C [Example 39]
0.01
